Tested on: Rattus norvegicus
Test: Plasma concentration in Wistar rat at 3 mg/kg, iv measured immediately after dosing
Type: ADME, organism-based
Parameters: dose 3 mg/kg, route intravenous
Settings: in vivo

{"columns": ["Item Smiles", "concentration"],
 "data": [
  ["CC(=O)N[C@@H](C)CCc1ccc(Oc2ccc(OC(C)C)nc2)cc1", "5.2 µM"]
]}

* * *

Experiment: AUC (0 to infinity) in Wistar rat liver at 10 mg/kg, po
Format: ADME, organism-based
Set-up: time infinity, dose 10 mg/kg, route oral

{"columns": ["Item Smiles", "AUC(0-inf) (µM·h)"],
 "data": [
  ["CC(=O)N[C@@H](C)CCc1ccc(Oc2ccc(OC(C)C)nc2)cc1", 120]
]}

* * *

Target: UniProt:P11497
Experiment: Inhibition of N-terminal His-tagged rat recombinant ACC1 expressed in high five insect cells by ATP consumption assay
Test Readout: IC50

{"columns": ["Compound", "Reported Measurement"],
 "data": [
  ["CC(=O)NC(C)CCc1ccc(OC2=NCC(OC(C)C)N=C2)cc1 (centres undefined)", "> 30 µM"],
  ["CC(=O)N[C@@H](C)C#Cc1cnc(Oc2ccc(OC(C)C)cc2)s1", "> 10 µM"],
  ["CC(=O)NCCC[C@H]1OC[C@H](Oc2ccc(OCc3ccccc3)cc2)CO1", "> 30 µM"],
  ["CC(=O)NCCCC1OCC(c2cccc3cc(OC4CCCC4)ccc23)CO1 (centres undefined)", "> 30 µM"]
]}
